Catalogue of EC50, cell killing of MKN45 cells readings, one per entry.
measured.on: T1, human CEA on cells (MKN45, LOVO, NCI-H2122, LS174T, CT26/CEA) (human, UniProt P06731 35-685)
T1 sequence: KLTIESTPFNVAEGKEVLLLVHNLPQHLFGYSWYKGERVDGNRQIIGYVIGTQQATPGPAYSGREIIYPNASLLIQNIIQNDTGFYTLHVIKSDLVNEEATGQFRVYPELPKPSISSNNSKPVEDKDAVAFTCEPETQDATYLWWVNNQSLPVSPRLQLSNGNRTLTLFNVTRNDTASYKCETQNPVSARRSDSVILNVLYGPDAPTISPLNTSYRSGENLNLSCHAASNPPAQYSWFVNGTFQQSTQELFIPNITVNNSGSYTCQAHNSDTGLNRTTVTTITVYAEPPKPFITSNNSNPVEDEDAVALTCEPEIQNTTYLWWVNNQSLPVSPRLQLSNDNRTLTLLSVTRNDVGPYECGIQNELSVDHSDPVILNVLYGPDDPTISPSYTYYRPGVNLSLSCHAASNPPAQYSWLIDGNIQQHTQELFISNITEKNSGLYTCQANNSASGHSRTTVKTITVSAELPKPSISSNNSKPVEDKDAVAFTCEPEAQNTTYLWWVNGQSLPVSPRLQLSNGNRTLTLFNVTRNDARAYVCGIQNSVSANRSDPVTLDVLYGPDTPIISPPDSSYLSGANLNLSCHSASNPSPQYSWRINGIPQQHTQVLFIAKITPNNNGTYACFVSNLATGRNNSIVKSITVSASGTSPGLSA
assay.notes: cell-based or functional assay
Output should be the measured figure followed by the unit it is expressed in.

{"binder": "BGA0084 (antibody, human IgG1, kappa, V domains shown, linker-payload conjugated after reduction of the antibody, DAR 8 profile (structure only as a drawing in Table 18)) VH: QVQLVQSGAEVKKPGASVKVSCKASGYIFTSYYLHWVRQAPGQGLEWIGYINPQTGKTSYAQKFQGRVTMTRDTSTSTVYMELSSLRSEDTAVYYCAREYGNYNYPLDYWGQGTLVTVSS VL: DIQMTQSPSSLSASVGDRVTITCRASENQYGYLAWYQQKPGKVPKLLIYNYKNLVEGVPSRFSGSGSGTDFTLTISSLQPEDVATYYCQHHLGTPYTFGQGTKVEIKR", "EC50, cell killing of MKN45 cells": "0.38 nM"}
{"binder": "BGA9962 (antibody, human IgG1, kappa, V domains shown, linker-payload conjugated after reduction of the antibody, DAR 8 (structure only as a drawing in Table 18)) VH: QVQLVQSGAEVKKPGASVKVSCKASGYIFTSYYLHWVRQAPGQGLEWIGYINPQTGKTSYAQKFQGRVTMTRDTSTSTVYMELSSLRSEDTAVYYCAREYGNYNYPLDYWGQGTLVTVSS VL: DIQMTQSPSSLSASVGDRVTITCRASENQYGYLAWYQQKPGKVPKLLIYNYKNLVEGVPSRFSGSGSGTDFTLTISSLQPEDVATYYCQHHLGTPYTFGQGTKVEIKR", "EC50, cell killing of MKN45 cells": "0.39 nM"}

Q: Quick one: EC50, cell killing of MKN45 cells for BGA8357 (antibody, human IgG1, kappa, V domains shown, linker-payload conjugated after reduction of the antibody, DAR 8 profile (structure only as a drawing in Table 18)) VH: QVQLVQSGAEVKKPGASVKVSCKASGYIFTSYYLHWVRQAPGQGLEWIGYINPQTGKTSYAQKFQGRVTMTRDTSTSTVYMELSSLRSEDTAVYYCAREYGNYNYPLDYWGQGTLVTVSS VL: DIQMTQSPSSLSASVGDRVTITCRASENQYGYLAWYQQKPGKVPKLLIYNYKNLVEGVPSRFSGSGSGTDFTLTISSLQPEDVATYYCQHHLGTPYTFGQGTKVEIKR ?
Ans: 0.38 nM
